Values were extracted from patent US7499847B2.

biological target: Recombinant human VAP-1 SSAO (Homo sapiens, UniProt Q16853); experiment: VAP-1 SSAO activity, coupled colourimetric assay (benzylamine substrate); settings: CHO cell lysate with recombinant human VAP-1 SSAO, 1 mM benzylamine, 1 h at 37° C.; read-out: VAP-1 SSAO inhibitory activity IC50
Sequence (Q16853 whole entry): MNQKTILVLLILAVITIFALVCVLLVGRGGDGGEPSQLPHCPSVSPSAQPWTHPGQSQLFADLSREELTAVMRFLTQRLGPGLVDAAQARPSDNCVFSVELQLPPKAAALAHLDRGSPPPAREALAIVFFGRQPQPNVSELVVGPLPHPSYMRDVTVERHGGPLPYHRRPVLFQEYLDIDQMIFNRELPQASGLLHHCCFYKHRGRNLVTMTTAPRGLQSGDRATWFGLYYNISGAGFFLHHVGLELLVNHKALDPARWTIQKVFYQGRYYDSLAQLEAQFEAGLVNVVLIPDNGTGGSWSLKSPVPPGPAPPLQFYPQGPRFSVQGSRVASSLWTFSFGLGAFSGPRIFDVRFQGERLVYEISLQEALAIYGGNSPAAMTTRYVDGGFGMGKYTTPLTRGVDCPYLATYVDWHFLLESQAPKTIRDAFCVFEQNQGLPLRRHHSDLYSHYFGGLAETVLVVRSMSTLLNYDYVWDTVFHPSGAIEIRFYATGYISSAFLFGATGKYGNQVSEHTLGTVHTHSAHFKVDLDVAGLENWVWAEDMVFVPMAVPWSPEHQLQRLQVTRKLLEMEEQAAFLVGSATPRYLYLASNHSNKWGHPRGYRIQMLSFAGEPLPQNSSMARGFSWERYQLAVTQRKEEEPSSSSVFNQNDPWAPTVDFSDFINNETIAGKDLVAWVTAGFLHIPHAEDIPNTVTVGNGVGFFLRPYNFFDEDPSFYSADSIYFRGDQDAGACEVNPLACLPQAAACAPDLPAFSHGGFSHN
Please go through the items and note down their IC50.
# output: bare number, implied unit nM

### Prompt Answer with IC50 of COc1ccc(OCC(O)CN(C)N)cc1.O=C(O)/C=C\C(=O)O (stereo not drawn) measured for Recombinant human VAP-1 SSAO (Homo sapiens, UniProt Q16853).
### Response 350

### Prompt Answer with IC50 of Cc1ccc(OCC(O)CN(C)N)cc1.O=C(O)/C=C/C(=O)O (stereo not drawn) measured for Recombinant human VAP-1 SSAO (Homo sapiens, UniProt Q16853).
### Response 430

### Prompt Answer with IC50 of CN(N)CC(O)COc1ccc(Cl)cc1.O=C(O)/C=C/C(=O)O (stereo not drawn) measured for Recombinant human VAP-1 SSAO (Homo sapiens, UniProt Q16853).
### Response 430

### Prompt Answer with IC50 of COC(COc1ccc(Cl)cc1)CN(C)N.O=C(O)/C=C/C(=O)O (stereo not drawn) measured for Recombinant human VAP-1 SSAO (Homo sapiens, UniProt Q16853).
### Response 260

### Prompt Answer with IC50 of COC(CN(C)N)CN(C)c1ccccc1.O=C(O)/C=C/C(=O)O (stereo not drawn) measured for Recombinant human VAP-1 SSAO (Homo sapiens, UniProt Q16853).
### Response 340

### Prompt Answer with IC50 of CN(N)CC(O)COc1ccc2ccccc2c1.O=C(O)/C=C/C(=O)O (stereo not drawn) measured for Recombinant human VAP-1 SSAO (Homo sapiens, UniProt Q16853).
### Response 550

### Prompt Answer with IC50 of CN(N)CC(O)CSc1ccccc1.O=C(O)/C=C/C(=O)O (stereo not drawn) measured for Recombinant human VAP-1 SSAO (Homo sapiens, UniProt Q16853).
### Response 270

### Prompt Answer with IC50 of Cc1ccccc1OCC(O)CN(C)N.O=C(O)/C=C/C(=O)O (stereo not drawn) measured for Recombinant human VAP-1 SSAO (Homo sapiens, UniProt Q16853).
### Response 520

### Prompt Answer with IC50 of COC(COc1ccc(C)cc1)CN(C)N.O=C(O)/C=C/C(=O)O (stereo not drawn) measured for Recombinant human VAP-1 SSAO (Homo sapiens, UniProt Q16853).
### Response 440
